For each of the compounds below, state its Activity.
System: Citrobacter
Assay: Antibacterial activity against Citrobacter assessed as concentration required to obtain a zone of inhibition of 20 mm after 18 to 24 hr by disk diffusion method
Assay type: functional
One number for each entry, in µg/mL.

// worked examples, Activity included
CCCCCCCC(=O)N1CCN(c2c(F)cc3c(=O)c(C(=O)O)cn(C4CC4)c3c2OC)CC1C.O (stereo unspecified) ... 15
COc1c(N2CCN(C(C)=O)C(C)C2)c(F)cc2c(=O)c(C(=O)O)cn(C3CC3)c12.O (stereo unspecified) ... 24
COc1c(N2CCN(C(=O)c3ccccc3)C(C)C2)c(F)cc2c(=O)c(C(=O)O)cn(C3CC3)c12.O (stereo unspecified) ... 12
C[C@@H]1CN(c2c(F)c(N)c3c(=O)c(C(=O)O)cn(C4CC4)c3c2F)C[C@H](C)N1 ... 10
CO/N=C1\CN(c2nc3c(cc2F)c(=O)c(C(=O)O)cn3C2CC2)CC1CN.CS(=O)(=O)O (stereo unspecified) [GEMIFLOXACIN MESYLATE] ... 11

From here, focus on the item given below.
COc1c(N2CCNC(C)C2)c(F)cc2c(=O)c(C(=O)O)cn(C3CC3)c12 (stereo unspecified) tested on Citrobacter gave Activity: 26

----------
System: Candida albicans
Test: Antifungal activity against Candida albicans assessed as zone of inhibition at 5 to 40 ug/ml after 7 days by disk diffusion method relative to gatifloxacin
Type: functional
RESULT_TYPE: inhibition zone (IZ) (%)
One number for each entry, in %.

// worked examples, inhibition zone (IZ) included
CCCCCCCC(=O)N1CCN(c2c(F)cc3c(=O)c(C(=O)O)cn(C4CC4)c3c2OC)CC1C.O (centres undefined) ... 218
COc1c(N2CCN(C(C)=O)C(C)C2)c(F)cc2c(=O)c(C(=O)O)cn(C3CC3)c12.O (centres undefined) ... 206

Could you tell me inhibition zone (IZ) for each of these molecules? They are listed below.
1. C[C@@H]1CN(c2c(F)c(N)c3c(=O)c(C(=O)O)cn(C4CC4)c3c2F)C[C@H](C)N1 [SPARFLOXACIN]
2. COc1c(N2CCN(C(=O)c3ccccc3)C(C)C2)c(F)cc2c(=O)c(C(=O)O)cn(C3CC3)c12.O (centres undefined)

// result
176
141

----------
For each of the compounds below, state its inhibition zone (IZ).
Test system: Escherichia coli
Assay: Antibacterial activity against Escherichia coli assessed as zone of inhibition at 5 to 40 ug/ml after 18 to 24 hr by disk diffusion method relative to gatifloxacin
Assay type: functional
Give bare numbers, in %.

// worked examples, inhibition zone (IZ) included
C[C@@H]1CN(c2c(F)c(N)c3c(=O)c(C(=O)O)cn(C4CC4)c3c2F)C[C@H](C)N1 ... 98.01
COc1c(N2CCN(C(=O)c3ccccc3)C(C)C2)c(F)cc2c(=O)c(C(=O)O)cn(C3CC3)c12.O (stereo not given) ... 117.3
CO/N=C1\CN(c2nc3c(cc2F)c(=O)c(C(=O)O)cn3C2CC2)CC1CN.CS(=O)(=O)O (stereo not given) [GEMIFLOXACIN MESYLATE] ... 75.72
CCCCCCCC(=O)N1CCN(c2c(F)cc3c(=O)c(C(=O)O)cn(C4CC4)c3c2OC)CC1C.O (stereo not given) ... 90.78

From here, focus on the item given below.
Noted for COc1c(N2CCN(C(C)=O)C(C)C2)c(F)cc2c(=O)c(C(=O)O)cn(C3CC3)c12.O (stereo not given) : its inhibition zone (IZ) reads 134.8
